Quick list: normalized growth per entry.
- Assay summary: chemical genetic growth profiling, strain panel (AID 1159580);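 further: tested at 20 µM; growth read once vehicle control cultures reached saturation at 30 °C; 1 = growth at the plate median or of vehicle wells; lower values mean less growth of the strain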
- Study conditions: S. cerevisiae deletion strains, growth OD, locus YFL009W, strain cdc4, hits give low values
About 2,000 (36%) of roughly 5,500 compounds were called active. Inconclusive results (about 18%) are left out. The list shows a part of the results.
# answer = number (no unit)

Solved cases (5 shown):
| Compound | Attribute measured | Value observed |
| --- | --- | --- |
| CC(=O)c1sc(SCCS(=O)(=O)c2ccc(C)cc2)c2c1CC(C)(C)CC2=O | normalized growth | 0.973 |
| CC(=O)Nc1ccc([N+](=O)[O-])cc1[N+](=O)[O-] | normalized growth | 0.899 |
| CCOc1ccc(/C=C(\C)[N+](=O)[O-])cc1OC | normalized growth | 0.98 |
| S=C(N/N=C\c1ccc(Cl)cc1)N/N=C\c1ccc(Cl)cc1 | normalized growth | 0.952 |
| Cc1ccc(S(=O)(=O)CCSC2=CC(=O)CC(C)(C)S2)cc1 | normalized growth | 0.997 |

Exercise: Which normalized growth value is on record for O=C1CSC(c2cccnc2)N1c1ccc(Cl)cc1Cl (stereo unspecified) ?
Solution: 1

Exercise: Which normalized growth value is on record for Cc1cc(Br)ccc1-n1c(Sc2c([N+](=O)[O-])cc(C(F)(F)F)cc2[N+](=O)[O-])nc2ccccc2c1=O ?
Solution: 0.986

Exercise: Which normalized growth value is on record for O=S(=O)(N/N=C\c1ccc(Cl)cc1)c1ccc(-c2ccccn2)s1 ?
Solution: 0.974

###

Quick list: normalized growth per entry.
- Assay summary: chemical genetic growth profiling, strain panel (AID 1159580);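 further: tested at 20 µM; growth read once vehicle control cultures reached saturation at 30 °C; 1 = growth at the plate median or of vehicle wells; lower values mean less growth of the strain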
- Study conditions: S. cerevisiae deletion strains, growth OD, locus YKR001C, strain vps1, hits give low values
Out of some 5,500 compounds screened, about 2,000 (36%) were called active. Roughly 18% stayed inconclusive and do not appear here. This is one part of the list.
# answer = number (no unit)

Solved cases (3 shown):
| Compound | normalized growth |
| --- | --- |
| COC(=O)Oc1ccccc1C(=O)O | 1.01 |
| Oc1c(Br)cc(Br)c2cccnc12 | 0.0714 |
| NC(=NCCC[C@H](N)C(=O)O)NC(CCC(=O)O)C(=O)O (stereo partly specified) | 1.06 |

Exercise: Which normalized growth value is on record for CC(=O)NCCCCCC(=O)O ?
Solution: 1.01

Exercise: Which normalized growth value is on record for Cc1ccc(/C(=C\CN2CCCC2)c2ccccn2)cc1 ?
Solution: 0.986

Exercise: Which normalized growth value is on record for CC(C)N(C(=O)SCC(Cl)=C(Cl)Cl)C(C)C ?
Solution: 0.987

Exercise: Which normalized growth value is on record for Oc1c(Cl)cc(Cl)c2cccnc12 ?
Solution: 0.0676

Exercise: Which normalized growth value is on record for CSCCC(NC=O)C(=O)NC(C)C(=O)O (stereo unspecified) ?
Solution: 0.988

Exercise: Which normalized growth value is on record for O=C(OC1Cc2c(O)cc(O)cc2OC1c1cc(O)c(O)c(O)c1-c1c(C2Oc3cc(O)cc(O)c3CC2OC(=O)c2cc(O)c(O)c(O)c2)cc(O)c(O)c1O)c1cc(O)c(O)c(O)c1 (stereo unspecified) ?
Solution: 0.961

###

- Assay summary: chemical genetic growth profiling, strain panel (AID 1159580);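 further: tested at 20 µM; growth read once vehicle control cultures reached saturation at 30 °C; 1 = growth at the plate median or of vehicle wells; lower values mean less growth of the strain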
- Study conditions: S. cerevisiae deletion strains, growth OD, locus YNL183C, strain NPR1
In all, about 5,500 compounds went through this assay and about 2,000 (36%) were called active. Another 18% or so got no clear call; they are omitted. Cut-off read from the data, not from the text of the source: active = normalized growth mostly below about 0.91 (no sharp cut-off); inconclusive = no clear call, values can overlap the other calls; inactive = mostly above about 0.92. Some of the results follow.
Reply using exactly one outcome from TRUE = active, FALSE = inactive

| Compound | Discrete label |
| --- | --- |
| Nc1ncnc2c1ncn2[C@@H]1O[C@H](CO)[C@@H](O)[C@H]1O | FALSE |
| CN[C@H]1C[C@@H](N)[C@H](O)[C@@H](O[C@@H]2O[C@H](CO)[C@@H]3OC4(O[C@@H]3[C@@H]2O)O[C@H](C(N)CO)[C@H](O)[C@H](O)[C@H]4O)[C@@H]1O (some centres not stated) | FALSE |
| NC(=O)CCCCC1CCSS1 (configuration not stated) | FALSE |
| O=[N+]([O-])c1cc([As](=O)(O)O)ccc1O | FALSE |
| O=C(O)CCCCC1CCSS1 (configuration not stated) | FALSE |
| N#CCC(=O)NNC(=S)Nc1ccc(Cl)c(Cl)c1 | FALSE |

Here's the next entry for you.
Exercise: Any idea what this test logged for COc1c2c(cc3c1OCO3)CCN(C)C2 ?
Solution: FALSE
